# credit: patent US20200270309A1

System: splenic lymphocytes
Assay notes: Proliferation of splenic lymphocytes in mice (ConA, MTT)
Assay type: cell-based
Particulars: polypeptide dose 0.05 μM, ConA-stimulated mouse splenic lymphocytes, 48 h
Peptide text beside a SMILES is read from it. * marks the point of attachment. X58 = O=C1C=CC(=O)N1c1cccc(CCCCCCCCCCCC(=O)*)c1; X68 = O=C1C=CC(=O)N1c1ccccc1CCCCCCCCCCCC(=O)*; X55 = O=C1C=CC(=O)N1c1ccccc1CCCCCCCCC(=O)*; X71 = O=C1C=CC(=O)N1c1cccc(CCCCCC(=O)*)c1
Exercise: state measured Inhibition rate (%) for each of the compounds provided.
Give bare numbers, in %.

Reference set (3 entries):
C[C@H](NC(=O)CNC(=O)[C@H](CCCNC(=N)N)NC(=O)CCCCCCCCCCCc1ccccc1N1C(=O)C=CC1=O)C(=O)N[C@@H](CC(=O)O)C(=O)N[C@@H](CCCNC(=N)N)C(=O)N[C@@H](C)C(=O)NCC(=O)NCC(=O)NCC(=O)NCC(=O)N[C@@H](CCCNC(=N)N)C(=O)NCC(=O)N[C@@H](CC(=O)O)C(=O)O [X23] (X68-RGADRAGGGGRGD-OH)
11.96
C[C@H](NC(=O)CNC(=O)[C@H](CCCNC(=N)N)NC(=O)CCCCCc1cccc(N2C(=O)C=CC2=O)c1)C(=O)N[C@@H](CC(=O)O)C(=O)N[C@@H](CCCNC(=N)N)C(=O)N[C@@H](C)C(=O)NCC(=O)NCC(=O)NCC(=O)NCC(=O)N[C@@H](CCCNC(=N)N)C(=O)NCC(=O)N[C@@H](CC(=O)O)C(=O)O [X29] (X71-RGADRAGGGGRGD-OH)
17.16
C[C@H](NC(=O)CNC(=O)[C@H](CCCNC(=N)N)NC(=O)CCCCCCCCCCCc1cccc(N2C(=O)C=CC2=O)c1)C(=O)N[C@@H](CC(=O)O)C(=O)N[C@@H](CCCNC(=N)N)C(=O)N[C@@H](C)C(=O)NCC(=O)NCC(=O)NCC(=O)NCC(=O)N[C@@H](CCCNC(=N)N)C(=O)NCC(=O)N[C@@H](CC(=O)O)C(=O)O [X35] (X58-RGADRAGGGGRGD-OH)
9.36

Next:
Q) State, for splenic lymphocytes, measured Inhibition rate (%) of the compound listed here: C[C@H](NC(=O)CNC(=O)[C@H](CCCNC(=N)N)NC(=O)CCCCCCCCc1ccccc1N1C(=O)C=CC1=O)C(=O)N[C@@H](CC(=O)O)C(=O)N[C@@H](CCCNC(=N)N)C(=O)N[C@@H](C)C(=O)NCC(=O)NCC(=O)NCC(=O)NCC(=O)N[C@@H](CCCNC(=N)N)C(=O)NCC(=O)N[C@@H](CC(=O)O)C(=O)O [X20] (X55-RGADRAGGGGRGD-OH)
A) 11.50

---

Tested on: IL-1β production by mouse peritoneal macrophages
Assay notes: IL-1β production by mouse peritoneal macrophages (ELISA)
Format: cell-based
Particulars: dose 0.05 μM; IL-1β production, vs model group
Peptide text beside a SMILES is read from it. * marks the point of attachment. X65 = O=C1C=CC(=O)N1c1cccc(CCCCCCCCCCCCC(=O)*)c1; X64 = O=C1C=CC(=O)N1c1cccc(CCCCCCCCCC(=O)*)c1; X68 = O=C1C=CC(=O)N1c1ccccc1CCCCCCCCCCCC(=O)*; X59 = O=C1C=CC(=O)N1c1cccc(CCCCCCCCC(=O)*)c1; X61 = O=C1C=CC(=O)N1c1cccc(CCCC(=O)*)c1
Endpoint name: Inhibition rate
Respond with a number, then the unit of measure.

C[C@H](NC(=O)CNC(=O)[C@H](CCCNC(=N)N)NC(=O)CCCCCCCCCCCc1ccccc1N1C(=O)C=CC1=O)C(=O)N[C@@H](CC(=O)O)C(=O)N[C@@H](CCCNC(=N)N)C(=O)N[C@@H](C)C(=O)NCC(=O)NCC(=O)NCC(=O)NCC(=O)N[C@@H](CCCNC(=N)N)C(=O)NCC(=O)N[C@@H](CC(=O)O)C(=O)O [X23] (X68-RGADRAGGGGRGD-OH)
15.69%
C[C@H](NC(=O)CNC(=O)[C@H](CCCNC(=N)N)NC(=O)CCCCCCCCc1cccc(N2C(=O)C=CC2=O)c1)C(=O)N[C@@H](CC(=O)O)C(=O)N[C@@H](CCCNC(=N)N)C(=O)N[C@@H](C)C(=O)NCC(=O)NCC(=O)NCC(=O)NCC(=O)N[C@@H](CCCNC(=N)N)C(=O)NCC(=O)N[C@@H](CC(=O)O)C(=O)O [X32] (X59-RGADRAGGGGRGD-OH)
18.02%
C[C@H](NC(=O)CNC(=O)[C@H](CCCNC(=N)N)NC(=O)CCCc1cccc(N2C(=O)C=CC2=O)c1)C(=O)N[C@@H](CC(=O)O)C(=O)N[C@@H](CCCNC(=N)N)C(=O)N[C@@H](C)C(=O)NCC(=O)NCC(=O)NCC(=O)NCC(=O)N[C@@H](CCCNC(=N)N)C(=O)NCC(=O)N[C@@H](CC(=O)O)C(=O)O [X27] (X61-RGADRAGGGGRGD-OH)
25.91%
C[C@H](NC(=O)CNC(=O)[C@H](CCCNC(=N)N)NC(=O)CCCCCCCCCCCCc1cccc(N2C(=O)C=CC2=O)c1)C(=O)N[C@@H](CC(=O)O)C(=O)N[C@@H](CCCNC(=N)N)C(=O)N[C@@H](C)C(=O)NCC(=O)NCC(=O)NCC(=O)NCC(=O)N[C@@H](CCCNC(=N)N)C(=O)NCC(=O)N[C@@H](CC(=O)O)C(=O)O [X36] (X65-RGADRAGGGGRGD-OH)
17.18%

Next:
Q) Using the record for C[C@H](NC(=O)CNC(=O)[C@H](CCCNC(=N)N)NC(=O)CCCCCCCCCc1cccc(N2C(=O)C=CC2=O)c1)C(=O)N[C@@H](CC(=O)O)C(=O)N[C@@H](CCCNC(=N)N)C(=O)N[C@@H](C)C(=O)NCC(=O)NCC(=O)NCC(=O)NCC(=O)N[C@@H](CCCNC(=N)N)C(=O)NCC(=O)N[C@@H](CC(=O)O)C(=O)O [X33] (X64-RGADRAGGGGRGD-OH) , state its measured Inhibition rate.
A) 25.68%
